- Tgt: T1, (WRWYCR)2 (synthetic)
- T1 chain: WRWYCR
- Protocol details: 2-AP fluorescence quenching
# note: exactly 100 nM is not below, so it is rule not met; use rule met for Kd strictly under it

Examples from the recorded data:
Binder: Lead-4AP2 (leading strand fork) (structured_DNA, one A of strand 4 is 2-aminopurine (AP2; underline lost)) DNA 1: CGCGGTACGGCCGGAAGCCTGGTTTACAATGCAAGCTTGACTGGCAGCCC DNA 2: GCGTCGAGTCGGCTGCAGAGGTATAAAACCAGGCTTCCGGCCGTACCGCG DNA 3: GGGCTGCCAGTCAAGCTTGCATTGT
Cat: rule not met

Binder: Flayed-4AP2 (structured_DNA, one A of strand 4 is 2-aminopurine (AP2; underline lost)) DNA 1: CGCGGTACGGCCGGAAGCCTGGTTTACAATGCAAGCTTGACTGGCAGCCC DNA 2: GCGTCGAGTCGGCTGCAGAGGTATAAAACCAGGCTTCCGGCCGTACCGCG
Cat: rule not met

Binder: GCGTCGAGTCGGCTGCAGAGGTATAAAACCAGGCTTCCGGCCGTACCGCG (ssDNA, one A is 2-aminopurine (AP2; underline lost)) [Oligo (strand 4 AP2)]
Cat: rule not met

Binder: HJ-4AP2 (structured_DNA, one A near junction center of strand 4 is 2-aminopurine (AP2; underline lost)) DNA 1: CGCGGTACGGCCGGAAGCCTGGTTTACAATGCAAGCTTGACTGGCAGCCC DNA 2: GGGCTGCCAGTCAAGCTTGCATTGTTGGAGGTACTGTTAGGAATTCTCCAAGTGACTCGG DNA 3: CCGAGTCACTTGGAGAATTCCTAACAGTACCTCCATATACCTCTGCAGCCGACTCGACGC DNA 4: GCGTCGAGTCGGCTGCAGAGGTATAAAACCAGGCTTCCGGCCGTACCGCG
Cat: rule met

Binder: Lag-4AP2 (lagging strand fork) (structured_DNA, one A of strand 4 is 2-aminopurine (AP2; underline lost)) DNA 1: CGCGGTACGGCCGGAAGCCTGGTTTACAATGCAAGCTTGACTGGCAGCCC DNA 2: GCGTCGAGTCGGCTGCAGAGGTATAAAACCAGGCTTCCGGCCGTACCGCG DNA 3: TATACCTCTGCAGCCGACTCGACGC
Cat: rule met

Okay, now this binder:
Does Fork-4AP2 (complete fork) (structured_DNA, one A of strand 4 is 2-aminopurine (AP2; underline lost)) DNA 1: CGCGGTACGGCCGGAAGCCTGGTTTACAATGCAAGCTTGACTGGCAGCCC DNA 2: GCGTCGAGTCGGCTGCAGAGGTATAAAACCAGGCTTCCGGCCGTACCGCG DNA 3: GGGCTGCCAGTCAAGCTTGCATTGT DNA 4: TATACCTCTGCAGCCGACTCGACGC have Kd strictly under 100 nM?
rule met
